Quick reference for melting point among some compounds
Express your answer in °C, writing the number without its unit.

Worked set:
- COMPOUND: "Cc1ccc([C@H]2[C@H](c3ccccc3)N[C@@]3(C(=O)Nc4ccc(Br)cc43)[C@@]23NC(=O)NC3=O)cc1 (racemic)"
  melting point (°C): 236
- COMPOUND: "O=C1NC(=O)[C@]2(N1)[C@@H](c1ccc(Cl)cc1)[C@H](c1ccccc1)N[C@@]21C(=O)Nc2ccc(Br)cc21 (racemic)"
  melting point (°C): 198
- COMPOUND: "COc1ccc([C@H]2[C@H](c3ccccc3)N[C@@]3(C(=O)Nc4ccc(Cl)cc43)[C@@]23NC(=O)NC3=O)cc1 (racemic)"
  melting point (°C): 211

Entry O=C1NC(=O)[C@]2(N1)[C@@H](c1ccc(Br)cc1)[C@H](c1ccccc1)N[C@@]21C(=O)N(Cc2ccccc2)c2ccccc21 (racemic) has what melting point?
223

Entry O=C1NC(=O)[C@]2(N1)[C@@H](c1ccc(Cl)cc1)[C@H](c1ccccc1)N[C@@]21C(=O)Nc2ccccc21 (racemic) has what melting point?
235

Entry O=C1NC(=O)[C@]2(N1)[C@@H](c1ccc(Cl)cc1)[C@H](c1ccccc1)N[C@@]21C(=O)N(Cc2ccccc2)c2ccccc21 (racemic) has what melting point?
195

Entry O=C1NC(=O)[C@]2(N1)[C@@H](c1ccc(F)cc1)[C@H](c1ccccc1)N[C@@]21C(=O)Nc2ccc(Cl)cc21 (racemic) has what melting point?
208

Entry COc1ccc([C@H]2[C@H](c3ccccc3)N[C@@]3(C(=O)Nc4ccccc43)[C@@]23NC(=O)NC3=O)cc1 (racemic) has what melting point?
187

Entry O=C1NC(=O)[C@]2(N1)[C@@H](c1ccc(F)cc1)[C@H](c1ccccc1)N[C@@]21C(=O)Nc2ccc(Br)cc21 (racemic) has what melting point?
223

Entry O=C1NC(=O)[C@]2(N1)[C@@H](c1ccccc1O)[C@H](c1ccccc1)N[C@@]21C(=O)Nc2ccc(Cl)cc21 (stereo in doubt) has what melting point?
223
